test-summary: Partition coefficient (logP)
Assay type: physicochemical
condition-context: octanol/water
observable: logP

(a) CCN(Cc1cc([N+](=O)[O-])cc2nc(O)c(O)nc12)[C@@H](C)P(=O)(O)O
(b) Br.C[C@H](NCc1cc([N+](=O)[O-])cc2nc(O)c(O)nc12)C(=O)O
Param metric = logP; output whichever of a , b has the minimum value. Identify your selection by its label.
a

====

assay-system: Glutamate receptor ionotropic, NMDA 1 (Rattus norvegicus) (UniProt P35439)
test-summary: In vitro inhibition of binding of [3H]MDL-105519 towards glycine binding site of NMDA receptor in rat at a concentration of 1 uM
observable: inhibition (%)

Please look up its inhibition: Br.CCN(Cc1cc([N+](=O)[O-])cc2nc(O)c(O)nc12)CP(=O)(O)O
24

Please look up its inhibition: O=C(O)CCNCc1cc(Br)cc2nc(O)c(O)nc12
37

Please look up its inhibition: COC(=O)C(C)(C)NCc1cc([N+](=O)[O-])cc2nc(O)c(O)nc12
-3

Please look up its inhibition: C[C@@H](CP(=O)(O)O)NCc1cc([N+](=O)[O-])cc2nc(O)c(O)nc12
15

Please look up its inhibition: C[C@H](NCc1cc([N+](=O)[O-])cc2nc(O)c(O)nc12)P(=O)(O)O
51

(a) O=[N+]([O-])c1cc(CNCCP(=O)(O)O)c2nc(O)c(O)nc2c1
(b) CCN(Cc1cc([N+](=O)[O-])cc2nc(O)c(O)nc12)[C@H](C)P(=O)(O)O
Which entry has a larger number for inhibition, a or b ? Identify your selection by its label.
b
(b: 25%, a: 8%)

(a) C[C@H](CP(=O)(O)O)NCc1cc([N+](=O)[O-])cc2nc(O)c(O)nc12
(b) CC(=O)N(Cc1cc([N+](=O)[O-])cc2nc(O)c(O)nc12)C(C)P(=O)(O)O (centres undefined)
Param metric = inhibition; output whichever of a , b has the minimum value. Identify your selection by its label.
a

src = ChEMBL document CHEMBL1132024
